Where do the numbers come from? From the supplement of paper PMC10567573.

protein stability index for assorted variants
B1: OAS1 (parent)
chain: YIGTHEYPHFSHRPSTLQAASTPQ

- Variants of: B1
- Assay: protein stability index of a GFP-peptide fusion (GPS, HEK-293T) (PSI 1-6); higher = more stable;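 also: lentivirally expressed fusions sorted by FACS into six bins by GFP to DsRed ratio, PSI derived from sequencing read proportions per bin multiplied by bin number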
- Condition set: c terminus: a fixed tail appended
The answer should be written as a number, with no unit following it.

Sample answers from the record:
[
  {
    "Residue change": "T22W",
    "protein stability index": 1.53
  },
  {
    "Residue change": "G3D",
    "protein stability index": 1.75
  },
  {
    "Residue change": "Q24A",
    "protein stability index": 1.66
  },
  {
    "Residue change": "P14Q",
    "protein stability index": 2.22
  },
  {
    "Residue change": "E6G",
    "protein stability index": 1.81
  }
]

Which protein stability index reading was recorded for the variant Y1V ? 3.64

And what about the variant H12K ? 2.07

And what about the variant F10S ? 2.9

And what about the variant G3T ? 2.29

And what about the variant Q24K ? 1.81

And what about the variant P23L ? 1.73

And what about the variant Q18H ? 2.38

And what about the variant T22Q ? 2.31

And what about the variant L17V ? 2.3

And what about the variant H12T ? 2.03

And what about the variant P14L ? 1.7

And what about the variant Q18E ? 2.22

And what about the variant L17T ? 1.98

And what about the variant L17S ? 2.12

And what about the variant L17P ? 2.5

And what about the variant H5I ? 1.93
